Target: C-X-C chemokine receptor type 2 (Homo sapiens, UniProt P25025)
Sequence (P25025 whole entry): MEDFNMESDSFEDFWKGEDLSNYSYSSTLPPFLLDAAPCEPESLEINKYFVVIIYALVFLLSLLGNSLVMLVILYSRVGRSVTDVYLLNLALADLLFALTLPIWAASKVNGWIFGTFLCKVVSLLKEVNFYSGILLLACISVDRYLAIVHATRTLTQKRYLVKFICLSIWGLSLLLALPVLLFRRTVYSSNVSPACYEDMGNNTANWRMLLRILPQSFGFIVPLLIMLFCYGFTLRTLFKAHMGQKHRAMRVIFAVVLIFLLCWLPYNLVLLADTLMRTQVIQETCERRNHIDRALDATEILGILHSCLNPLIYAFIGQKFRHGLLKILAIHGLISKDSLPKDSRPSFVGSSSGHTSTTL
Assay: In Vitro Affinity Assay: ⿿PathHunter HEK293-CXCR2⿝ or ⿿U2OS hCXCR1 β-arrestin⿝ cells (DiscoveRx Corporation) were seeded overnight at 10 000 cells/well (384-well format) in 20 μl of Opti MEM I medium. A preincubation with the antagonist or the vehicle for 30 min at 37° C. and 5% CO2 was followed by 60 minutes of stimulation with CXCL8 at 37° C. and 5% CO2. The cells were then placed at ambient temperature for 30 minutes. The PathHunter detection reagent (DiscoveRx Corporation) was added. After incubation for 60 min at ambient temperature, the […] during the β-arrestin-CXCR2 interaction was measured for 0.3 s in an Envision 2102 Multilabel Reader (PerkinElmer Life and Analytical Sciences).
measured_attribute: IC50 (nM)

[P] Cc1ccc(C(Nc2c(Nc3cccnc3O)c(=O)c2=O)C2CCCS2)o1 (configuration not stated)
[Q] Cc1ccc(C(Nc2c(Nc3ccc(Cl)c(C(=O)N(C)C)c3O)c(=O)c2=O)C2CCCS2)o1 (single isomer, unassigned)
Of the two listed items, P and Q , which carries the larger IC50 figure? Which one? Tell me its label.
Q
(Q: 69 nM, P: 23 nM)
